# Tested on: 3D7
# assay.explanation: qHTS profiling for inhibitors of Plasmodium falciparum proliferation (AID 504749); also: nearly all actives have a fitted effect of over 60% in size
# setup.conditions: P. falciparum in erythrocytes, SYBR Green DNA, 72 h; series mostly up to 28.7 µM
Inconclusive results are not listed. Active and inactive are the calls of the source. Calls follow the shape of the dose curve; as a rule, active = well fitted inhibition curve with a large enough effect; inconclusive = small, poorly fitted or top-dose-only effect; inactive = flat fitted curve, though single readings scatter.
Outcome field: choose from active, inactive

Tell me the recorded outcome of this test for "COc1ccc(CN2CCNCC2)c(OC)c1OC" .
inactive

Tell me the recorded outcome of this test for "COc1ccc(C(=O)N2CCCC2=O)cc1" .
inactive

Tell me the recorded outcome of this test for "NC(=O)CN1CCCC1=O" .
inactive

Tell me the recorded outcome of this test for "CN1C(=O)CN=C(c2ccccc2)c2cc([N+](=O)[O-])ccc21" .
inactive

Tell me the recorded outcome of this test for "CCN(CC)CCOC(=O)C(C)(c1ccccc1)c1ccccc1" .
inactive

Tell me the recorded outcome of this test for CC(C)NCC(O)c1ccc(N)c(C#N)c1 (stereo not drawn) .
inactive

Tell me the recorded outcome of this test for "OC(O)C(Cl)(Cl)Cl" .
inactive

Tell me the recorded outcome of this test for "C[C@]12C=CC(=O)C=C1CC[C@@H]1[C@@H]2CC[C@@]2(C)[C@H]1CC[C@]2(C)O" .
inactive

Tell me the recorded outcome of this test for "c1cc2c(c(N3CCNCC3)c1)OCCO2" .
inactive

Tell me the recorded outcome of this test for "Cc1ncc2n1-c1ccc(Cl)cc1C(c1ccccc1F)=NC2" .
inactive

Tell me the recorded outcome of this test for CCOC(=O)NC(O)C(Cl)(Cl)Cl (stereo not drawn) .
inactive

Tell me the recorded outcome of this test for "CNC(=O)Oc1cccc2ccccc12" .
inactive

Tell me the recorded outcome of this test for "C#C[C@]1(O)CC[C@H]2[C@@H]3CCC4=CC(=O)CCC4=C3C=C[C@@]21CC" .
active
